Biological target: Ybr033w (UniProt P38073)
Sequence: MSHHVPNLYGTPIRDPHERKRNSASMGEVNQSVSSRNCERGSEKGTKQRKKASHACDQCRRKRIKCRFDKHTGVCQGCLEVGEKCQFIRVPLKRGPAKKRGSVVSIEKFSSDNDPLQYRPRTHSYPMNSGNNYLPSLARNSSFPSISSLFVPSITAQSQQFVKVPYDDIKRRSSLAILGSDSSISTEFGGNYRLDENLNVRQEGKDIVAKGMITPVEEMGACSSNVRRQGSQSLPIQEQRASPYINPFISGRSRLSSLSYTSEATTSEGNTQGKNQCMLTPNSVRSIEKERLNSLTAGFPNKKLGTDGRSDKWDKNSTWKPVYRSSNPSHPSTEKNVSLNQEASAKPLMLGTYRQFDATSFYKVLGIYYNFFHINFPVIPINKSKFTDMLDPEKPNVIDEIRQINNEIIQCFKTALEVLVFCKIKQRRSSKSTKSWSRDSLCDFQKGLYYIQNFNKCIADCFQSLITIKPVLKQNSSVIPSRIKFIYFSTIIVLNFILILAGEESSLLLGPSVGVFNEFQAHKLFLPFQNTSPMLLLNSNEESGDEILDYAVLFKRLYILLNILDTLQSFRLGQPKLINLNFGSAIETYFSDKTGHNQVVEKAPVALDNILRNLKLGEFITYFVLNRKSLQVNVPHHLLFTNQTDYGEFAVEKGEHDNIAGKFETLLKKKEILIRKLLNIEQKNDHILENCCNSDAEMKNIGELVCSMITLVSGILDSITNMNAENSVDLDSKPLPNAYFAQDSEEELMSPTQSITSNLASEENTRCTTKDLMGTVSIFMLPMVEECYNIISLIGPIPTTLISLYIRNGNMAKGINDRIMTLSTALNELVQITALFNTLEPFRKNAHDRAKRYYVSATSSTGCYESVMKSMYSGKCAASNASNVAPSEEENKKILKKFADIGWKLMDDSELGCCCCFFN
Experiment: PBM E-score (8-mer binding enrichment) (E-score (-0.5 to 0.5)); higher = stronger / more preferred TF binding
Details: protein concentration: 200 nM; construct: GST-full length
In all, about 33,000 sequences were measured (“E-score (-0.5 to 0.5)”: median about -0.012, highest 2% from about 0.29 on). For the sample, the highest values were picked, then their nearest neighbours and some sequences at random.
observedProperty: PBM E-score
Lab note: record just the number, no unit beside it.

Before answering, review these 5 worked examples.
In [3]: df
Out[3]:
        seq  testresult
0  ATGAGGGG      -0.206
1  ATGTGGAA       0.235
2  GTTCCGAA        0.29
3  CCCAGTTA     -0.0098
4  CCGCCTGA      -0.172

[ask] Recorded PBM E-score of GGTCCGAA , please.
[reply] -0.0173

[ask] What does the data say about its PBM E-score? Entry: ATTCCGAG
[reply] 0.242

---

PBM E-score reference
Target: Ybr033w (UniProt P38073)
Sequence: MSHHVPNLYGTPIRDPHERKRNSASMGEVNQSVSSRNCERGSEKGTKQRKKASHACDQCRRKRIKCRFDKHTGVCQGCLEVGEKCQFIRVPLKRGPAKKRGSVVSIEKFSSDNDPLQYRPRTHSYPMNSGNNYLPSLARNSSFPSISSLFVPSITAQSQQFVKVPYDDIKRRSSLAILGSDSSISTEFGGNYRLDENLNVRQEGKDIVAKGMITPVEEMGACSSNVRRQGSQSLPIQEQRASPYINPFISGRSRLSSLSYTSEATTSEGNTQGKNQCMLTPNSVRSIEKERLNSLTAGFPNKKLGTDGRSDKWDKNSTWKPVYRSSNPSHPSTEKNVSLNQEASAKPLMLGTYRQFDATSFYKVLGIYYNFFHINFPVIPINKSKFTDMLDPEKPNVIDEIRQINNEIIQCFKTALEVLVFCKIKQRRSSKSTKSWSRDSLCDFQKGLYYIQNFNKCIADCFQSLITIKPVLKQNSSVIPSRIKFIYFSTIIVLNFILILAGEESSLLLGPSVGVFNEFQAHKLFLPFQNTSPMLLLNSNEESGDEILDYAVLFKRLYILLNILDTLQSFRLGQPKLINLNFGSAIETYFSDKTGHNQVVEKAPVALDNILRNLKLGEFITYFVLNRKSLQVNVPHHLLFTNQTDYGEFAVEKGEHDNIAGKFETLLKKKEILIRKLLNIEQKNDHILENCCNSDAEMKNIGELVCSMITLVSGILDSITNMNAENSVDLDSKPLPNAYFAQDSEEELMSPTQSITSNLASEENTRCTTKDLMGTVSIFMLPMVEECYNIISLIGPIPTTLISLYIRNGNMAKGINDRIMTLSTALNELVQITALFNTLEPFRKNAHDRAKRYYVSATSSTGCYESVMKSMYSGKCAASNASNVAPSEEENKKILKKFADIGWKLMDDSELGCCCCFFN
Assay: PBM E-score (8-mer binding enrichment) (E-score (-0.5 to 0.5)); higher = stronger / more preferred TF binding
Conditions: protein concentration: 200 nM; construct: GST-full length
Whole data set: some 33,000 sequences, median “E-score (-0.5 to 0.5)” near -0.012, cut for the highest 2% near 0.29. The sample as a whole holds a higher share of the highest values than the screen did.
// return just the number, without any unit appended

In [3]: df
Out[3]:
        seq  testresult
0  AAATGATT       0.273
1  CAGATATA       0.175
2  AGCTGACA      -0.103
3  GGGATATA       0.158
4  CATTTCCG        0.12

[ask] Request - read-out PBM E-score | tested on Ybr033w (UniProt P38073) | sequence TATATATA
[reply] 0.28

[ask] Any idea what PBM E-score came out for AAATTCCA on Ybr033w (UniProt P38073)?
[reply] 0.258

The values you see were collected from the supplement of paper PMC3334620.
